IC50 values for the molecules below.
- Tested on: human KDR enzyme (Homo sapiens)
- Construct: The cytoplasmic domain of human KDR enzyme is cloned in the form of a GST fusion; GST; made in house; host or cells: SF21 insect cells (baculovirus, pFastBac)
- Sequence (P35968 786-1356 limits assumed): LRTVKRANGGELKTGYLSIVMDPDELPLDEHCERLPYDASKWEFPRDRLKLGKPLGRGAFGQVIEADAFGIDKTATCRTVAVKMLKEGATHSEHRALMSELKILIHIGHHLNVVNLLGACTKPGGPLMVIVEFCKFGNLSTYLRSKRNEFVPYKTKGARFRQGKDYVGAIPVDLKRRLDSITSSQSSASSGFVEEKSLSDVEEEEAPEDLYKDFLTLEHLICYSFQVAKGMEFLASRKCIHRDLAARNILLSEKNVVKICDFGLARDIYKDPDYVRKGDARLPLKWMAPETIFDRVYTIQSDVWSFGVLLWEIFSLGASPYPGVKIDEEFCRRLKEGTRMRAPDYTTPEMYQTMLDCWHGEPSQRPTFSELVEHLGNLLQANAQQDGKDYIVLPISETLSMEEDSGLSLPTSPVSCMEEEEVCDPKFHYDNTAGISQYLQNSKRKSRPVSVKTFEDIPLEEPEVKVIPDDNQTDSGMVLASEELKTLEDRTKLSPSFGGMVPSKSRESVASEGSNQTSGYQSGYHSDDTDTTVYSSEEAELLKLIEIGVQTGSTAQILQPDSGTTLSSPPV
- Measurement protocol: Phosphorylation of the substrate PLCγ by the enzyme KDR in vitro (flashplate technique)
- Type: biochemical
- Conditions: Table VII, degrees of activity by IC50 range; read-out: Activity

molecule=CN(C)c1ccc(C(=O)COc2cc(-c3nc4ccccc4[nH]3)[nH]n2)cc1 endpoint_name=IC50 value="> 3 µM"

Request: May I ask what IC50 has been recorded for O=C(NCc1csc2ccccc12)c1ccc2[nH]c(-c3n[nH]c4ccccc34)nc2c1 [Example 42] ?
Response: 0.3 to 3 µM

Request: Consider next the molecule Cc1cccc(CNC(=O)c2ccc3[nH]c(-c4n[nH]c5ccccc45)nc3c2)c1 in the same way.
Response: < 0.3 µM

Request: Consider next the molecule CC(=O)Nc1ccc(CNC(=O)c2ccc3[nH]c(-c4n[nH]c5ccccc45)nc3c2)cc1 in the same way.
Response: 0.3 to 3 µM
